B1: TPR t1 (parent)
chain: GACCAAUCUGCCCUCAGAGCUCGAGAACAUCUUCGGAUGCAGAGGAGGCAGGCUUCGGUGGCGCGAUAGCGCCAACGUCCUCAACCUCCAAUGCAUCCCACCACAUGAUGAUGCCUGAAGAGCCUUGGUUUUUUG

Variants of: B1
Assay: polymerase ribozyme fitness, log enrichment relative to wild type (log ratio); higher = more active; in vitro selection for triplet polymerase activity
Here, each record is paired with measured polymerase ribozyme fitness (log ratio) data.
Readout Label: polymerase ribozyme fitness (log ratio)

mutation_notation="C20A G77U G120C" readout_label="polymerase ribozyme fitness (log ratio)" data_value=-1.96
mutation_notation="C11G C20U C22A G39C" readout_label="polymerase ribozyme fitness (log ratio)" data_value=-5.35
mutation_notation="A66U G69U C88G C99A A119G" readout_label="polymerase ribozyme fitness (log ratio)" data_value=-5.79
mutation_notation="G47A A50G C115A" readout_label="polymerase ribozyme fitness (log ratio)" data_value=-1.8
mutation_notation="C11A C12U C40A C56U C89A G122U" readout_label="polymerase ribozyme fitness (log ratio)" data_value=-2.66
mutation_notation="A2U C104U" readout_label="polymerase ribozyme fitness (log ratio)" data_value=-1.41
mutation_notation="C40G C104U G113C G122A" readout_label="polymerase ribozyme fitness (log ratio)" data_value=-3.43
mutation_notation="C12U U92G U96A" readout_label="polymerase ribozyme fitness (log ratio)" data_value=-2.63
mutation_notation="G69U C82G C89A" readout_label="polymerase ribozyme fitness (log ratio)" data_value=-1.32
mutation_notation="C13G C62U A100C U112C" readout_label="polymerase ribozyme fitness (log ratio)" data_value=-1.47
mutation_notation="C15U C22G G61C C114G" readout_label="polymerase ribozyme fitness (log ratio)" data_value=-7.09
mutation_notation="C40U G52U" readout_label="polymerase ribozyme fitness (log ratio)" data_value=-1.14
mutation_notation="C12G G61U G107U" readout_label="polymerase ribozyme fitness (log ratio)" data_value=-4.66
mutation_notation="C8A A43C G44A C53A C86U G93U" readout_label="polymerase ribozyme fitness (log ratio)" data_value=-2.53
mutation_notation="A105U U106G G120C" readout_label="polymerase ribozyme fitness (log ratio)" data_value=0.766
mutation_notation="G10A A41C G52A" readout_label="polymerase ribozyme fitness (log ratio)" data_value=-1.27
mutation_notation="U21A A24G C70U" readout_label="polymerase ribozyme fitness (log ratio)" data_value=-2.2
mutation_notation="C3G G93A" readout_label="polymerase ribozyme fitness (log ratio)" data_value=-2.07
mutation_notation="C22U G45U" readout_label="polymerase ribozyme fitness (log ratio)" data_value=-4.99
mutation_notation="A37U C86U A105G A121C U132C" readout_label="polymerase ribozyme fitness (log ratio)" data_value=-1.31
mutation_notation="G44U A74U C88A U133G" readout_label="polymerase ribozyme fitness (log ratio)" data_value=-2.41
mutation_notation="C8U U9G A37G G117C" readout_label="polymerase ribozyme fitness (log ratio)" data_value=-0.0473
mutation_notation="G61A C88U A105G" readout_label="polymerase ribozyme fitness (log ratio)" data_value=-2.9
mutation_notation=G10A readout_label="polymerase ribozyme fitness (log ratio)" data_value=0.148
mutation_notation="C12U G35A C62U G117A" readout_label="polymerase ribozyme fitness (log ratio)" data_value=-6.59
mutation_notation="C82U C89A" readout_label="polymerase ribozyme fitness (log ratio)" data_value=-1.21
mutation_notation="U9G C73U C82A A83C A118U G128A" readout_label="polymerase ribozyme fitness (log ratio)" data_value=-1.71
mutation_notation="U38A G113C" readout_label="polymerase ribozyme fitness (log ratio)" data_value=-2.81
mutation_notation="C40A U54C C82G A118U C123U" readout_label="polymerase ribozyme fitness (log ratio)" data_value=-0.573
mutation_notation="U9G C49A C104A" readout_label="polymerase ribozyme fitness (log ratio)" data_value=-1.57
mutation_notation="A6U A46G C70U U133A" readout_label="polymerase ribozyme fitness (log ratio)" data_value=-1.52
mutation_notation="C12U G61U C88A" readout_label="polymerase ribozyme fitness (log ratio)" data_value=-0.482
mutation_notation="C8G A50G U106G G120A" readout_label="polymerase ribozyme fitness (log ratio)" data_value=1.23
mutation_notation="C12U G63U C70A C82A C115A G128A" readout_label="polymerase ribozyme fitness (log ratio)" data_value=-1.07
mutation_notation="U9A A29U A41U G60A U78C G93U A119G" readout_label="polymerase ribozyme fitness (log ratio)" data_value=-2.57
mutation_notation="C12A A74G C123A U131A" readout_label="polymerase ribozyme fitness (log ratio)" data_value=2.13
mutation_notation="G52A C53A A74G A90G" readout_label="polymerase ribozyme fitness (log ratio)" data_value=0.00151
mutation_notation="U21A C34A C82A C123U U133G" readout_label="polymerase ribozyme fitness (log ratio)" data_value=-2.66
mutation_notation="C8G G61A" readout_label="polymerase ribozyme fitness (log ratio)" data_value=0.403
mutation_notation="C11G G57A C73A C123G" readout_label="polymerase ribozyme fitness (log ratio)" data_value=0.666
mutation_notation="A41C G51C" readout_label="polymerase ribozyme fitness (log ratio)" data_value=-6.13
mutation_notation="C22G A103U" readout_label="polymerase ribozyme fitness (log ratio)" data_value=-4.6
mutation_notation="G42A U55C" readout_label="polymerase ribozyme fitness (log ratio)" data_value=-2.24
mutation_notation="C22G C73U" readout_label="polymerase ribozyme fitness (log ratio)" data_value=-2.27
mutation_notation="C11U G48U U59C A84G C101A" readout_label="polymerase ribozyme fitness (log ratio)" data_value=-2.88
mutation_notation="U9A C89G A90U" readout_label="polymerase ribozyme fitness (log ratio)" data_value=-0.63
